meta.source: the Immune Epitope Database (IEDB)

- study.target: HLA-A*30:02
- procedure.text: IEDB peptide-MHC binding, purified MHC/competitive/radioactivity; filed as Kd, often an IC50 or EC50 that approximates it; bounds were set here for any values at or beyond the usual limits of such assays
- conditions: source organism: Lake Victoria marburgvirus - Angola2005
quantity.name: Kd

-- ask Given the entry KVKNEVASF , report its measured Kd.
-- reply 158 nM

* * *

- study.target: HLA-B*08:01
- procedure.text: IEDB peptide-MHC binding, purified MHC/competitive/radioactivity; filed as Kd, often an IC50 or EC50 that approximates it; bounds were set here for any values at or beyond the usual limits of such assays
- conditions: source organism: Lake Victoria marburgvirus - Angola2005
quantity.name: Kd (nM)
One number for each entry, in nM.

-- ask State the recorded Kd for this entry: APFARVLNL
-- reply 67

* * *

- study.target: HLA-B*07:02
- procedure.text: IEDB peptide-MHC binding, purified MHC/competitive/radioactivity; filed as Kd, often an IC50 or EC50 that approximates it; bounds were set here for any values at or beyond the usual limits of such assays
- conditions: source organism: Lake Victoria marburgvirus - Angola2005
quantity.name: Kd (µM)
Numbers only, in µM.

>  <sequence.text>
APFARVLNL

>  <Kd [µM]>
0.00021

$$$$

Query sequence follows.
-- ask Please give the measured Kd for this sequence: EVASFKQAL
-- reply 0.25

* * *

- study.target: HLA-B*40:01
- procedure.text: IEDB peptide-MHC binding, purified MHC/competitive/radioactivity; filed as Kd, often an IC50 or EC50 that approximates it; bounds were set here for any values at or beyond the usual limits of such assays
- conditions: source organism: Lake Victoria marburgvirus - Angola2005
quantity.name: Kd (nM)
Numbers only, in nM.

-- ask Quick check: Kd of GEYAPFARV ?
-- reply 107

* * *

- study.target: HLA-A*02:06
- procedure.text: IEDB peptide-MHC binding, purified MHC/competitive/radioactivity; filed as Kd, often an IC50 or EC50 that approximates it; bounds were set here for any values at or beyond the usual limits of such assays
- conditions: source organism: Lake Victoria marburgvirus - Angola2005
quantity.name: Kd
Include the unit right after the number.

-- ask For GLYPQLSAI , what is its reported Kd?
-- reply 6.9 nM

* * *

- study.target: HLA-B*44:02
- procedure.text: IEDB peptide-MHC binding, purified MHC/competitive/radioactivity; filed as Kd, often an IC50 or EC50 that approximates it; bounds were set here for any values at or beyond the usual limits of such assays
- conditions: source organism: Lake Victoria marburgvirus - Angola2005
quantity.name: pKd
Give bare numbers, as −log10 of the molar value.

-- ask For the sequence GEYAPFARV , what pKd is on record?
-- reply 6.67

* * *

- study.target: HLA-A*32:01
- procedure.text: IEDB peptide-MHC binding, purified MHC/competitive/radioactivity; filed as Kd, often an IC50 or EC50 that approximates it; bounds were set here for any values at or beyond the usual limits of such assays
- conditions: source organism: Lake Victoria marburgvirus - Angola2005
quantity.name: pKd
Numbers only, as −log10 of the molar value.

-- ask Name the reported pKd value associated with the sequence KVKNEVASF
-- reply 8.54

* * *

- study.target: HLA-A*02:03
- procedure.text: IEDB peptide-MHC binding, purified MHC/competitive/radioactivity; filed as Kd, often an IC50 or EC50 that approximates it; bounds were set here for any values at or beyond the usual limits of such assays
- conditions: source organism: Lake Victoria marburgvirus - Angola2005
quantity.name: Kd (nM)
Numbers only, in nM.

-- ask Can you look up the measured Kd of GLYPQLSAI for me?
-- reply 1.4

* * *

- study.target: HLA-B*15:01
- procedure.text: IEDB peptide-MHC binding, purified MHC/competitive/radioactivity; filed as Kd, often an IC50 or EC50 that approximates it; bounds were set here for any values at or beyond the usual limits of such assays
- conditions: source organism: Lake Victoria marburgvirus - Angola2005
quantity.name: pKd
One number for each entry, as −log10 of the molar value.

>  <sequence.text>
LIVKTVLEF

>  <pKd>
9.10

$$$$

Now for the sequence whose pKd we want.
-- ask Dear colleague, I am looking for the recorded pKd of the following sequence: KVKNEVASF
-- reply 8.25

* * *

- study.target: HLA-A*30:01
- procedure.text: IEDB peptide-MHC binding, purified MHC/competitive/radioactivity; filed as Kd, often an IC50 or EC50 that approximates it; bounds were set here for any values at or beyond the usual limits of such assays
- conditions: source organism: Lake Victoria marburgvirus - Angola2005
quantity.name: Kd
Respond with a number, then the unit of measure.

-- ask # get_value(readout='Kd', item= TVLEFILQK )
-- reply 365 nM

* * *

- study.target: HLA-A*68:01
- procedure.text: IEDB peptide-MHC binding, purified MHC/competitive/radioactivity; filed as Kd, often an IC50 or EC50 that approximates it; bounds were set here for any values at or beyond the usual limits of such assays
- conditions: source organism: Lake Victoria marburgvirus - Angola2005
quantity.name: Kd (nM)
Give bare numbers, in nM.

-- ask // returns reported Kd for input TVLEFILQK
-- reply 2.2

* * *

- study.target: HLA-A*26:01
- procedure.text: IEDB peptide-MHC binding, purified MHC/competitive/radioactivity; filed as Kd, often an IC50 or EC50 that approximates it; bounds were set here for any values at or beyond the usual limits of such assays
- conditions: source organism: Lake Victoria marburgvirus - Angola2005
quantity.name: Kd (nM)
Numbers only, in nM.

-- ask For HLA-A*26:01, provide Kd of EVASFKQAL please.
-- reply 86

* * *

- study.target: HLA-A*23:01
- procedure.text: IEDB peptide-MHC binding, purified MHC/competitive/radioactivity; filed as Kd, often an IC50 or EC50 that approximates it; bounds were set here for any values at or beyond the usual limits of such assays
- conditions: source organism: Lake Victoria marburgvirus - Angola2005
quantity.name: Kd (nM)
Answers are plain numbers, in nM.

-- ask May I ask what Kd has been recorded for LIVKTVLEF ?
-- reply 109
